Tested on: HL-60
Test: NCI tumour cell line growth inhibition, 48 h
Active and inactive are the calls of the source. No stated cut-off is given here; in the data, active = GI50 up to about 1.1 µM and inactive = higher.
# maps each entry to its GI50

Nc1nc(NNc2cccc(F)c2)cc(=O)[nH]1 : 23.1 µM (inactive)
CC(C)(C)c1cc(C(=O)C2Cc3ccccc3C(=O)O2)cc(C(C)(C)C)c1O (stereo not given) : 4.88 µM (inactive)

Task: # lookup: GI50 of N#CCCCCC12C3C(=O)N(c4ccccc4)C(=O)C3ON1O[C@@H]1C(=O)N(c3ccccc3)C(=O)[C@@H]12 (stereo not given in full)
Output: > 100 µM (inactive)

Task: # lookup: GI50 of C/C=C/C(C#N)(/C=C/c1ccccc1)OP1(=O)OC(c2ccccc2)C(C)N1C (stereo not given)
Output: 12.6 µM (inactive)

Task: # lookup: GI50 of CCOC(=O)c1c(N)sc2c1C(C(=O)OCC)CC2 (stereo not given)
Output: 31.5 µM (inactive)

Task: # lookup: GI50 of Cc1cnccc1/N=N/c1ccc(N(C)C)cc1
Output: 47.5 µM (inactive)

Task: # lookup: GI50 of N#Cc1c(-c2ccccc2)c(C#N)c(=S)n(C2OCC(O)C(O)C2O)c1N (stereo not given)
Output: > 100 µM (inactive)

Task: # lookup: GI50 of CCCCCCCCCCCC(=O)c1c(O)cc(C)oc1=O
Output: 42.4 µM (inactive)

Task: # lookup: GI50 of CCn1c(SCC(=O)NNC(=S)Nc2ccc(F)cc2)nc2ccccc2c1=O
Output: > 100 µM (inactive)

Task: # lookup: GI50 of Cc1ccc(S(=O)(=O)N(C=O)N=C2CCN(Cc3ccccc3)CC2)cc1
Output: > 100 µM (inactive)

Task: # lookup: GI50 of CSCCC(NC(=O)OCc1ccccc1)P(=O)(O)c1ccccc1 (stereo not given)
Output: > 100 µM (inactive)
